Molecular target: T1, soluble DC-SIGNR tetramer (entire extracellular domain including the α-helical neck region) (UniProt Q9H2X3 71-399)
T1 construct: DC-SIGNR (DC-SIGN-related), entire extracellular domain (α-helical neck region and carbohydrate recognition domain); also called DC-SIGNR ECD
T1 sequence (looked up): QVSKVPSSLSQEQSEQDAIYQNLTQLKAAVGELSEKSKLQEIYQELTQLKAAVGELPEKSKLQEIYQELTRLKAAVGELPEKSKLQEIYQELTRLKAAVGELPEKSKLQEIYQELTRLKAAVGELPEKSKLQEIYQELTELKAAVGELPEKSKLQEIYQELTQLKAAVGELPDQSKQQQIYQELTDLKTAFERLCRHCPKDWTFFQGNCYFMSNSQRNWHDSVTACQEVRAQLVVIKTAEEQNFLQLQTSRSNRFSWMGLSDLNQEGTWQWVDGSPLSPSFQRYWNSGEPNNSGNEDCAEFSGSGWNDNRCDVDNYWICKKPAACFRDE
Test: ELISA; DC-SIGN or DC-SIGNR (tetramer or monomer) coated (5, 2.5, 1.25, 0.625 µg/well, carbonate-bicarbonate buffer pH 9.6); ghA, ghB, ghC or mutants 2.5 µg/100 µl in 50 mM NaCl, 100 mM Tris-HCl pH 7.5, 5 mM CaCl2; 37°C 1.5 h then 4°C 1.5 h; detected with anti-MBP; percent binding against the wild-type module as 100%
Conditions: both partners purified
Assignment: determine reported % binding (wild-type module = 100%) for the given binders.
Numbers only, in %.

The examples below pair each entry with its known result.
binder	unit.info	obs.value
recombinant globular head module ghB of human C1q, fused to maltose-binding protein (domain or fragment, UniProt P02746 117-253, looked up, globular head region of the B chain of human C1q (ghB module); source: E. coli BL21, purified (amylose resin)) KATQKIAFSATRTINVPLRRDQTIRFDHVITNMNNNYEPRSGKFTCKVPGLYYFTYHASSRGNLCVNLMRGRERAQKVVTFCDYAYNTFQVTTGGMVLKLEQGENVFLQATDKNSLLGMEGANSIFSGFLLFPDMEA	%	100
ghB substitution mutant Leu^B136Gly (domain or fragment) KATQKIAFSATRTINVPLRRDQTIRFDHVITNMNNNYEPRSGKFTCGVPGLYYFTYHASSRGNLCVNLMRGRERAQKVVTFCDYAYNTFQVTTGGMVLKLEQGENVFLQATDKNSLLGMEGANSIFSGFLLFPDMEA	%	54
recombinant globular head module ghA of human C1q, fused to maltose-binding protein (domain or fragment, UniProt P02745 110-245, looked up, globular head region of the A chain of human C1q (ghA module); as I recall ghA is residues 88-223 of the mature A chain with MBP at the N-terminus; source: E. coli BL21, purified (amylose resin)) KDQPRPAFSAIRRNPPMGGNVVIFDTVITNQEEPYQNHSGRFVCTVPGYYYFTFQVLSQWEICLSIVSSSRGQVRRSLGFCDTTNKGLFQVVSGGMVLQLQQGDQVWVEKDPKKGHIYQGSEADSVFSGFLIFPSA	%	100

Quote % binding (wild-type module = 100%) reported for recombinant globular head module ghC of human C1q, fused to maltose-binding protein (domain or fragment, UniProt P02747 115-245, looked up, globular head region of the C chain of human C1q (ghC module); as I recall ghC is residues 87-217 of the mature C chain with MBP at the N-terminus; source: E. coli BL21, purified (amylose resin)) KQKFQSVFTVTRQTHQPPAPNSLIRFNAVLTNPQGDYDTSTGKFTCKVPGLYYFVYHASHTANLCVLLYRSGVKVVTFCGHTSKTNQVNSGGVLLRLQVGEEVWLAVNDYYDMVGIQGSDSVFSGFLLFPD please. 100
